assay: Serum pharmacokinetics of THC and metabolites after inhaled or i.p. THC; type: in vivo, female Sprague Dawley rats; settings: female, Sprague Dawley, rat, serum, ip, 2 mg/kg
measurementType: half-life (h)
Numbers only; they are read as h.

QUERY: Please give the documented half-life of CCCCCc1cc(O)c2c(c1)OC(C)(C)[C@@H]1CCC(C)=C[C@@H]21 [THC, delta-9-tetrahydrocannabinol]
RESULT: 3.4

###

test: Serum pharmacokinetics of THC and metabolites after inhaled or i.p. THC; format: in vivo, female Sprague Dawley rats; conditions: female, Sprague Dawley, rat, serum, ip, 2 mg/kg
measurementType: CL/F (mL/min/kg)
Numbers only; they are read as mL/min/kg.

QUERY: Please give the documented CL/F of CCCCCc1cc(O)c2c(c1)OC(C)(C)[C@@H]1CCC(C)=C[C@@H]21 [THC, delta-9-tetrahydrocannabinol]
RESULT: 91.7

###

assay: Serum pharmacokinetics of THC and metabolites after inhaled or i.p. THC; assay type: in vivo, female Sprague Dawley rats; conditions: female, Sprague Dawley, rat, serum, ip, 2 mg/kg
measurementType: Tmax (min)
Numbers only; they are read as min.

QUERY: Please give the documented Tmax of CCCCCc1cc(O)c2c(c1)OC(C)(C)[C@@H]1CCC(C)=C[C@@H]21 [THC, delta-9-tetrahydrocannabinol]
RESULT: 10

###

experiment: Serum pharmacokinetics of THC and metabolites after inhaled or i.p. THC; format: in vivo, female Sprague Dawley rats; conditions: female, Sprague Dawley, rat, serum, ip, 2 mg/kg
measurementType: Cmax (ng/mL)
Numbers only; they are read as ng/mL.

QUERY: Please give the documented Cmax of CCCCCc1cc(O)c2c(c1)OC(C)(C)[C@@H]1CCC(C)=C[C@@H]21 [THC, delta-9-tetrahydrocannabinol]
RESULT: 108

###

assay: Serum pharmacokinetics of THC and metabolites after inhaled or i.p. THC; assay type: in vivo, female Sprague Dawley rats; conditions: female, Sprague Dawley, rat, serum, inhaled or intranasal, 0.76 mg/kg
measurementType: Vd/F (L/kg)
Numbers only; they are read as L/kg.

QUERY: Please give the documented Vd/F of CCCCCc1cc(O)c2c(c1)OC(C)(C)[C@@H]1CCC(C)=C[C@@H]21 [THC, delta-9-tetrahydrocannabinol]
RESULT: 33

###

experiment: Serum pharmacokinetics of THC and metabolites after inhaled or i.p. THC; format: in vivo, female Sprague Dawley rats; conditions: female, Sprague Dawley, rat, serum, ip, 2 mg/kg
measurementType: Vd/F (L/kg)
Numbers only; they are read as L/kg.

QUERY: Please give the documented Vd/F of CCCCCc1cc(O)c2c(c1)OC(C)(C)[C@@H]1CCC(C)=C[C@@H]21 [THC, delta-9-tetrahydrocannabinol]
RESULT: 26.9

###

assay: Serum pharmacokinetics of THC and metabolites after inhaled or i.p. THC; type: in vivo, female Sprague Dawley rats; details: female, Sprague Dawley, rat, serum, ip, 2 mg/kg
measurementType: AUC(0-inf)
Answer with the number, then the unit.

QUERY: Please give the documented AUC(0-inf) of CCCCCc1cc(O)c2c(c1)OC(C)(C)[C@@H]1CCC(C)=C[C@@H]21 [THC, delta-9-tetrahydrocannabinol]
RESULT: 0.364 µg·h/mL

###

assay: Serum pharmacokinetics of THC and metabolites after inhaled or i.p. THC; type: in vivo, female Sprague Dawley rats; settings: female, Sprague Dawley, rat, serum, inhaled or intranasal, 0.76 mg/kg
measurementType: half-life (h)
Numbers only; they are read as h.

QUERY: Please give the documented half-life of CCCCCc1cc(O)c2c(c1)OC(C)(C)[C@@H]1CCC(C)=C[C@@H]21 [THC, delta-9-tetrahydrocannabinol]
RESULT: 2.7
